# Tested on: 786-0 renal
# assay-summary: NCI-60 one-dose screen, 48 h (100 = growth as untreated, 0 = no growth, -100 = all killed)
# assay-context: 10 µM unless noted
Compounds without any hit were thinned out: in the full panel of roughly 83,000, 20% have a hit.
condition met means recorded growth is 50% or above; condition not met means it is below 50%.

Q: // inclusive: growth at least 50%? input: CC(=O)Nc1ccc(-c2cn(-c3cccc(C(=O)Nc4ccc(N5CCN(C)CC5)cc4)c3)nn2)cn1
A: condition not met

Q: # check: growth of Cc1ccc2c(N)c(C(=O)Nc3ccc(OC(F)(F)F)cc3)sc2n1 is greater than or equal to 50%
A: condition met

Q: Is the recorded value of growth equal to or greater than 50% for this compound? COc1ccc(NC(=O)Cn2c(/C=C/c3cccc([N+](=O)[O-])c3)nc3ccccc3c2=O)cc1
A: condition not met

Q: Say whether NS(=O)(=O)c1ccc(N=Nc2c(O)n(CC(=O)Nc3ccccc3)c3ccccc23)cc1 shows growth of 50% or more.
A: condition not met

Q: Would you say COc1ccc2c(c1)c(-c1cc(N)n3nc(-c4cn(C)c5ccccc45)cc3n1)cn2C shows growth at minimum 50%?
A: condition not met

Q: Does the reported growth for CCOC(=O)c1ccc(Nc2nc(NN)nc(-c3ccc(F)cc3)c2C#N)cc1 fall at or above the 50% mark?
A: condition met

Q: State whether the measured growth reaches 50%, counting equality as reaching it, for Cn1cc(-c2nc(N)nnc2-c2c[nH]c3ccc(F)cc23)c2cccnc21
A: condition met

Q: Hi team, for C#CCOc1ccc(/C=N/Nc2nc(-c3cc4cc(OC)ccc4oc3=O)cs2)cc1OC , is the recorded growth at or above 50%?
A: condition met

Q: growth >= 50% for CN(C)c1ccnc(CNCCSC2(c3ccc(C(F)(F)F)cc3)c3ccccc3CCc3ccccc32)c1 ?
A: condition not met
